biological target: T1, rat NGF (rat, UniProt P25427 122-241); experiment: SPR (Biacore T200), 100 nM mAb on NGF chip, similarity to parent mAb
T1 construct: also called rN
T1 sequence (P25427 122-241 limits assumed): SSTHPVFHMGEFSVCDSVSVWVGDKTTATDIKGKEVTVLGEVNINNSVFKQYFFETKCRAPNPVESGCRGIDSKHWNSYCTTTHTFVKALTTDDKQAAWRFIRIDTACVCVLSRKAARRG
Measurement kind: Percent Similarity Score (KD on rN) (%)
Please state the figure in %; there is no need to write the unit.

[
  {
    "Binder": "can9L12VH_L107A (antibody, V domains shown) VH: EVQLVESGGDLVKPGGSLRLSCVASGFTFSSHGMHWVRQSPGKGLQWVAVINSGGSSTYYTDAVKGRFTISRDNAKNTVYLQMNSLRAEDTAMYYCAKESVGGWEQAVGPHFDYWGQGTLVIVSS VL: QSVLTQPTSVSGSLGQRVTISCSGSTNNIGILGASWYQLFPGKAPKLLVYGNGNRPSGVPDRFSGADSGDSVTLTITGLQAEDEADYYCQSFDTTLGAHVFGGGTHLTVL",
    "Measurement kind": "Percent Similarity Score (KD on rN)",
    "Unit annotation": "%",
    "Measured value": 2
  }
]

Here is another binder to look at.
[ask] Fill blank: measured Percent Similarity Score (KD on rN) of the binder can48L2VH_S53A (antibody, V domains shown, CDR scanning mutant of ZTS-842 (48L2)) VH: EVQLVESGGDLVKPGGSLRLSCVASGFTFSTYGINWVRQAPGKGLQWVAYISAGGSSTYYADPVKGRFTISRDDAKNMLYLQMNSLRAEDTAIYYCAGSRYTYAYGGGYEFHFWGQGTLVTVSS VL: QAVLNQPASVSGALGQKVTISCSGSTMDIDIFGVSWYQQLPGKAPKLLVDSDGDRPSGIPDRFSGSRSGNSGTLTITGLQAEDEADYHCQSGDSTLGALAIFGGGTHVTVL is ____.
[reply] 99.4
